# System: Escherichia coli
# Assay notes: Antimicrobial activity against Escherichia coli NICM 2138 assessed as growth inhibition by two-fold serial dilution method
# Assay type: functional
Measurement label: MIC (µg/mL)

Examples with answers:
Molecule	Result units	MIC
Cc1nn(-c2ccc(-c3nnc(S)o3)cc2)c(=O)n1/N=C/c1ccco1	µg/mL	150
Cc1nn(-c2ccc(-c3nnc(S)n3N)cc2)c(=O)n1N	µg/mL	37.5
Cc1nn(-c2ccc(-c3nnc(S)o3)cc2)c(=O)n1/N=C/c1cscn1	µg/mL	37.5
Cc1nn(-c2ccc(-c3nnc(S)o3)cc2)c(=O)n1/N=C/c1cccc(F)c1	µg/mL	9.37
Cc1nn(-c2ccc(-c3nnc(S)o3)cc2)c(=O)n1/N=C/c1cc(F)ccc1F	µg/mL	150
CSc1nnc(-c2ccc(-n3nc(C)n(N)c3=O)cc2)o1	µg/mL	75

a: CCOC(=O)CSc1nnc(-c2ccc(-n3nc(C)n(N)c3=O)cc2)o1
b: Cc1nn(-c2ccc(-c3nnc(S)o3)cc2)c(=O)n1N
c: CC1(C)S[C@@H]2[C@H](NC(=O)Cc3ccccc3)C(=O)N2[C@H]1C(=O)O [PENICILLIN G]
d: Cc1nn(-c2ccc(-c3nnc(S)o3)cc2)c(=O)n1/N=C/c1ccccc1Br
Qu. // smallest MIC at index 0, largest at the end Answer format: the labels, ordered as requested.
Ans. c, a, b, d
(c: 6.25 µg/mL, a: 37.5 µg/mL, b: 75 µg/mL, d: 150 µg/mL)

P: Cc1nn(-c2ccc(-c3nnc(S)o3)cc2)c(=O)n1/N=C/c1ccc(F)cc1
Q: Cc1nn(-c2ccc(-c3nnc(S)o3)cc2)c(=O)n1/N=C/c1ccccc1F
Qu. // which entry reports the smaller MIC, P or Q ? Write the label of whichever entry you select.
Ans. P
(P: 37.5 µg/mL, Q: 75 µg/mL)
